Target desc: T1, human GIP receptor (human, UniProt P48546 22-466)
T1 sequence (looked up): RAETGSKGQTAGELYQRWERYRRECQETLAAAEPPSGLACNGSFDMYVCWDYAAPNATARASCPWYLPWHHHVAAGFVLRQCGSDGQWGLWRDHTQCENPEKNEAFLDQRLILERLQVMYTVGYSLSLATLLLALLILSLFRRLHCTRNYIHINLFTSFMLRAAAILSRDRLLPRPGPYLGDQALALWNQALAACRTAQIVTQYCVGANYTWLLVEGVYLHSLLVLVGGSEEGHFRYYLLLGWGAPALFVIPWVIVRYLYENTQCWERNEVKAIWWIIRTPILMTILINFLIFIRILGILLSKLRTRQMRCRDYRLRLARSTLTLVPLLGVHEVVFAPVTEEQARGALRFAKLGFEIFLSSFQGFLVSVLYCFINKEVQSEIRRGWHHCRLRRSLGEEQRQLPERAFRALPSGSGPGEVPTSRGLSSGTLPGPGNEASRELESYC
Method notes: cell-based or functional assay
Bridge positions count the residues as written; N and C are the ends. Square brackets hold non-standard residues; d marks the D form. Ends that are not written are not given here. C20L5A = not defined here; Aib = CC(C)(N)C(=O)O
EC50 of receptor-mediated cAMP synthesis, GIPR (nM), 02/19 reference
Observable: EC50 of receptor-mediated cAMP synthesis, GIPR (nM), 02/19

Binder	Assay result
Y[Aib]EGTYTSDYSIYLDKCAA[Aib]EFVCWLIAGGPSSGAPPPS-NH2 (linker 17-24 via C20L5A; not fully specified; reading uncertain) [6Y, 27I, C(17-24)-C20L5A]	0.27
Y[Aib]EGTYTNDYSIYLDKCAA[Aib]EFVCWLIAGGPSSGAPPPS-NH2 (linker 17-24 via C20L5A; not fully specified; reading uncertain) [6Y, 8N, 27I, C(17-24)-C20L5A]	2.48
Y[Aib]EGTFTSDYSIYCDKQAA[Aib]CFVNWLIAGGPSSGAPPPS-NH2 (linker 14-21 via C20L5A; not fully specified; reading uncertain) [mCMV266 (27I, C(14-21)-C20L5A)]	0.08
Y[Aib]EGTYTSDYSIYCDKQAA[Aib]CFVNWLIAGGPSSGAPPPS-NH2 (linker 14-21 via C20L5A; not fully specified; reading uncertain) [6Y, 27I, C(14-21)-C20L5A]	0.5
Y[Aib]EGTFTSDYSIYLDKCAA[Aib]EFVCWLLAGGPSSGAPPPS-NH2 (linker 17-24 via C20L5A; not fully specified; reading uncertain) [C(17-24)-C20L5A]	0.04
Y[Aib]EGTFTSDYSIYKDKQAA[Aib]KFVNWLLAGGPSSGAPPPS-NH2 (bridge 14-21; not fully specified (bridges); also: K4 staple carries PEG-fatty acid) [mCMD307 (2050-K4)]	0.04
